system: Escherichia coli IAI1; assay: growth (OD595) fold change vs plate DMSO controls (fold change (ratio)); higher = more growth; conditions: 20 µM; incubation time: 27 h, anaerobic, 37 °C
Structures can show the parent of a compound that is named as a salt.
Outcome label depends on growth relative to 1: at/above gives Fulfilled, below gives Not fulfilled.

// known answers, use as guide
COMPOUND	CATEGORY LABEL
O=C(O)c1nc(Cl)ccc1Cl	Fulfilled
CCCCN(CCCC)N=O [DBNA (N-nitrosodibutylamine)]	Not fulfilled
CCn1cc(C(=O)O)c(=O)c2cc3c(cc21)OCO3 [Oxolinic acid]	Not fulfilled
CN(C)[C@@H]1C(=O)C(C(N)=O)=C(O)[C@@]2(O)C(=O)C3=C(O)c4c(O)ccc(Cl)c4[C@@](C)(O)[C@H]3C[C@@H]12 [Chlortetracycline hydrochloride]	Not fulfilled
OC(Cn1cncn1)(c1ccc(F)cc1)c1ccccc1F (configuration not stated)	Fulfilled
CCc1cc(C)cc(CC)c1-c1c(OC(=O)C(C)(C)C)n2n(c1=O)CCOCC2	Fulfilled
CC(N)C(O)c1ccccc1 (configuration not stated) [Phenylpropanolamine hydrochloride]	Fulfilled
C[N+]1(C)[C@@H]2CC[C@H]1C[C@@H](OC(=O)C(CO)c1ccccc1)C2 (some centres not stated) [Methylatropine nitrate]	Not fulfilled

Q: Is reported growth greater than or equal to 1 here: C[C@@H]1CN([C@H]2CC[C@](C#N)(c3ccc(F)cc3)CC2)CC[C@]1(C(=O)O)c1ccccc1 [Levocabastine hydrochloride]
Result: Fulfilled

Q: Is reported growth greater than or equal to 1 here: COc1cc(OC)nc(NC(=O)NS(=O)(=O)c2ncccc2C(=O)N(C)C)n1
Result: Fulfilled

Q: Is reported growth greater than or equal to 1 here: Oc1ccc2c3c1O[C@H]1[C@@H](O)CC[C@@]4(O)[C@@H](C2)N(CC2CCC2)CC[C@]314 [Nalbuphine hydrochloride]
Result: Not fulfilled

Q: Is reported growth greater than or equal to 1 here: O=C(NCNC(=O)NC1C(=O)NC(=O)N1CO)NC1C(=O)NC(=O)N1CO (configuration not stated) [Imidurea]
Result: Fulfilled

Q: Is reported growth greater than or equal to 1 here: COc1ccccc1N [o-Anisidine]
Result: Fulfilled

Q: Is reported growth greater than or equal to 1 here: C1=Cc2cccc3cccc1c23 [Acenaphthylene]
Result: Fulfilled

Q: Is reported growth greater than or equal to 1 here: CCNC(=O)NC(=O)/C(C#N)=N/OC
Result: Fulfilled
